The entries below come with measured pKd values attached.
TARGET OR SYSTEM: T1, BoNT/F1 (proteolytic BoNT/F) (Clostridium botulinum, UniProt A7GBG3 1-1278)
T1 sequence: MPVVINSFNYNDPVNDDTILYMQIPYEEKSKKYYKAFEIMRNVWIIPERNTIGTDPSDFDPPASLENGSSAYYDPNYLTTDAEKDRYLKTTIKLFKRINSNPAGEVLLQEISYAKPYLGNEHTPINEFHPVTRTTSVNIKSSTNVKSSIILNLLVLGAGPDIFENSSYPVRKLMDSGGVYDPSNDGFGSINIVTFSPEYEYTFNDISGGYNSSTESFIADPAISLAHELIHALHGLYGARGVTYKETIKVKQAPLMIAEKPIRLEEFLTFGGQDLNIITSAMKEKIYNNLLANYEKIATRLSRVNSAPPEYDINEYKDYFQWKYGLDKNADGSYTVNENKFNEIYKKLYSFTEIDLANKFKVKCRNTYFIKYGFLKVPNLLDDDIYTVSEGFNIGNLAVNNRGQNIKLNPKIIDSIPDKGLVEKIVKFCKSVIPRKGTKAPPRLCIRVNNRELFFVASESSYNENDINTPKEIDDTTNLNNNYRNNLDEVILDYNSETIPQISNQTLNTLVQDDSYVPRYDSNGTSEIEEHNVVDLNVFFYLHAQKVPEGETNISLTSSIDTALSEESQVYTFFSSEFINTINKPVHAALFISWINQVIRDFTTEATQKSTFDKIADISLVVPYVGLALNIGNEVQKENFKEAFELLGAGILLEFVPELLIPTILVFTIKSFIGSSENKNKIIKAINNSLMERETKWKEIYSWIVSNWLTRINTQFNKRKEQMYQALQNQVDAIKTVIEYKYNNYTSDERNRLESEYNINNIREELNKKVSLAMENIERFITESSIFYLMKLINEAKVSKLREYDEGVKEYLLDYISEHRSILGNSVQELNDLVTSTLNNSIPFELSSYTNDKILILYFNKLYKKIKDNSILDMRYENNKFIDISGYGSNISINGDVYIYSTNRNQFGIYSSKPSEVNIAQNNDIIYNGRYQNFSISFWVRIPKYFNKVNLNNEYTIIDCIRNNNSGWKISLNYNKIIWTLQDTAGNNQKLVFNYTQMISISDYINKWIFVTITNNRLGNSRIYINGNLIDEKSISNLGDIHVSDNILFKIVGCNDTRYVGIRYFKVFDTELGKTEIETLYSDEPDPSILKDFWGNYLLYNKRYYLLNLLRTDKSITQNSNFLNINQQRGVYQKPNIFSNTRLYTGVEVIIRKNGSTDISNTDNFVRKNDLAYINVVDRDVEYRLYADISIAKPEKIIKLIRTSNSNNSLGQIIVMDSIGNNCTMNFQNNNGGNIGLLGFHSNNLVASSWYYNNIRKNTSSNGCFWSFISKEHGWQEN
ASSAY DETAILS: yeast scFv FACS
pKd: −log10 of the molar value.

BINDER	pKd
41A4 scFv (scFv, V domains shown) VH: EVQLVQSGGNLVQPGGSLRLSCAATGPIGSHWMTWVRQAPGQGLEWVANINLDGTEKFYVDSVKGRFTVSRDNRKSSVFLQMNNLRVDDTAVYYCARLQWGGYDGWLSPWGQGTLVTVSS VL: DIVMTQSPPSLSASVGDRVSLTCRASEYIGTSLNWYQQKPGKAPKLLIYAASALHSGVPSRFSGSGSGTDFTLTISGLQPEDFATYYCQQTNDLPLTFGGGTKLEIK	9.27
4E17.2 scFv (scFv, V domains shown) VH: EVQLVQSGGNLVQPGGSLRLSCAATGPIGSHWMTWVRQAPGQGLEWVANINLDGTEKFYVDSVKGRFTVSRDNRKSSVFLQMNNLRVDDTAVYYCARLQWGGYNGWLSPWGQGTLVTVSS VL: DIEMTQSPPSLSASVGDRVSLTCRASEYIGTSLNWYQQKPGKAPKLLIYAASALHSGVPSRFSGSGSGTDFTLTISGLQPEDFATYYCQQANDLPLTFGGGTKLEIK	9.41
43D3 scFv (scFv, V domains shown) VH: EVQQVQSGGNLVQPGGSLRLSCAATGPIGSHWMTWVRQAPGQGLEWVANINLDGTEKFYVDSVKGRFTVSRDNRKSSVFLQMNNLRVDDTAVYYCARLQWGGYNGWLSPWGQGTLVTVSS VL: DIVMTQSPPSLSASVGDRVSLTCRASEYIGTSLNWYQQKPGKAPKLLIYAASALHSGVPSRFSGSGSGTDFTLTISGLQPEDFATYYCQQANDLPLTFGGGTKLENK	9.48
29B8 scFv (scFv, V domains shown) VH: EVQLQQSGAELVKPGASVKLSCTASGFNIKDYYMHWVKQRTEQGLEWIGRIDPEDGETKYAPKFQGKATITADTSSNTAYLQLSSLTSEDTAVYYCVSLLRSRTGYFDYWGQGTTLTVSS VL: ENVLTQSPAIMSASPGEKVTMTCSASSSVSYMHWYQQKSGTSPKRWIYDTSNLAPGVPARFSGSGSGTSYSLTISSMEAEDAASYFCHQWSSYPYTFGGGTKLEIK	7.45
